# Test system: myeloid leukemia patient primary cells Pat.13
# METHOD: cell viability (% survival relative to DMSO control); higher = less cytotoxic
# MEASUREMENT PARAMETERS: 10000 nM; 72 h
ASSAY ENDPOINT: cell viability (%)

INSERT INTO assay_data (smiles_representation, result) VALUES
  ('Cn1cc(-c2ccncc2)c(-c2ccc(OCc3ccc4ccccc4n3)cc2)n1', 53.5),
  ('c1cc(-c2cnn3cc(-c4ccc(OCCN5CCCCC5)cc4)cnc23)ccn1', 48.6),
  ('Cc1c2c(=O)n(-c3ccccc3Cl)[nH]c2cc(=O)n1Cc1ccccn1', 92.5);

====

# Tested on: LAMA-84
# METHOD: cell viability (% survival relative to DMSO control, bortezomib = 0%); higher = less cytotoxic
# MEASUREMENT PARAMETERS: 1000 nM; 72 h
Below, each entry is listed with its recorded cell viability.
ASSAY ENDPOINT: cell viability (%)

INSERT INTO assay_data (compound, assay_endpoint, readout_units, result) VALUES
  ('O=c1c(-c2ccc(O)cc2)coc2cc(O[C@@H]3O[C@H](CO)[C@@H](O)[C@H](O)[C@H]3O)ccc12 [Daidzin]', 'cell viability', '%', 99.2),
  ('CC(C)(C)c1ccc(S(=O)(=O)NCc2ccc(C(=O)Nc3cccnc3)cc2)cc1 [STF-31]', 'cell viability', '%', 6.82),
  ('O=C(/C=C/c1ccc(O)c(O)c1)OCCc1ccccc1 [Caffeic acid phenethyl ester]', 'cell viability', '%', 89.3),
  ('O=C(Nc1ccccc1)c1cc([N+](=O)[O-])ccc1Cl [GW9662]', 'cell viability', '%', 101),
  ('O=C(NCCN1CCC(n2c(O)nc3ccccc32)CC1)c1cc2cc(F)ccc2[nH]1 [FIPI]', 'cell viability', '%', 98.6),
  ('CCCCCCCC/C=C\CCCCCCCC(=O)Nc1ccccc1 [Octadec-9-Enoic Acid Phenylamide]', 'cell viability', '%', 103);

====

# System: HL-60
# METHOD: cell viability (% survival relative to DMSO control); higher = less cytotoxic
# MEASUREMENT PARAMETERS: 0.001 µM; 72 h; co-treatment: AZD3965 100 nM
Below, each entry is listed with its recorded cell viability.
ASSAY ENDPOINT: cell viability (%)

INSERT INTO assay_data (molecule, result) VALUES
  ('CCc1c(C(=O)C(N)=O)c2c(OCC(=O)O)cccc2n1Cc1ccccc1 [Varespladib]', 97.7),
  ('CCN(CC)C(=S)SSC(=S)N(CC)CC [Disulfiram]', 104),
  ('Cc1ccc(-c2cc(C(F)(F)F)nn2-c2ccc(S(N)(=O)=O)cc2)cc1 [Celecoxib]', 104),
  ('O=C(O)CC[N+](=O)[O-] [3-nitropropionic acid]', 102),
  ('CCCCCOC(=O)Nc1nc(=O)n([C@@H]2O[C@H](C)[C@@H](O)[C@H]2O)cc1F [Capecitabine]', 103),
  ('CC/C=C\C[C@H]1C(=O)CC[C@@H]1CC(=O)OC [methyl jasmonate]', 98.2),
  ('CCc1oc2ccccc2c1C(=O)c1cc(Br)c(O)c(Br)c1 [Benzbromarone]', 98.7),
  ('C[C@H]1c2cccc(O)c2C(=O)C2C(=O)[C@]3(O)C(=O)C(C(N)=O)C(=O)[C@@H](N(C)C)[C@@H]3[C@@H](O)[C@@H]21 (stereo not given in full) [Doxycycline]', 92.6),
  ('N#C/C(=C\c1ccc(O)cc1)C(=O)O [alpha-cyano-4-hydroxycinnamic acid]', 99.4),
  ('COc1ccc2c(NC(=O)Nc3cccc(C(F)(F)F)n3)ccnc2c1', 100);

====

# Tested on: KU-812
# METHOD: cell viability (% survival relative to DMSO control, bortezomib = 0%); higher = less cytotoxic
# MEASUREMENT PARAMETERS: 1000 nM; 72 h
Response field label takes 1.0 when cell viability is strictly below 80% and 0.0 in all other cases.

INSERT INTO measurements (compound, qualitative_label) VALUES
  ('C=CC(=O)c1ccc(O)cc1', 0.0),
  ('CCOC(=O)c1sc(NC(=O)c2ccco2)c(SC#N)c1C', 0.0),
  ('CN(Cc1cnc2nc(N)nc(N)c2n1)c1ccc(C(=O)N[C@@H](CCC(=O)O)C(=O)O)cc1 [Methotrexate]', 1.0),
  ('c1cc(-c2cnn3cc(-c4ccc(OCCN5CCCCC5)cc4)cnc23)ccn1', 0.0);

====

# Tested on: HL-60
# METHOD: cell viability (% survival relative to DMSO control); higher = less cytotoxic
# MEASUREMENT PARAMETERS: 0.001 µM; 72 h; co-treatment: DMSO vehicle
Counter-ions that a name gives are not always drawn.
Below, each entry is listed with its recorded cell viability.
ASSAY ENDPOINT: cell viability (%)

INSERT INTO results (compound, assay_endpoint, readout_units, result) VALUES
  ('CCN(CCO)CCCC(C)Nc1ccnc2cc(Cl)ccc12 (stereo not given) [Hydroxychloroquine sulfate]', 'cell viability', '%', 92.3),
  ('N#C/C(=C\c1ccc(O)cc1)C(=O)O [alpha-cyano-4-hydroxycinnamic acid]', 'cell viability', '%', 98.9),
  ('CCc1c(C(=O)C(N)=O)c2c(OCC(=O)O)cccc2n1Cc1ccccc1 [Varespladib]', 'cell viability', '%', 101),
  ('O=c1c(-c2ccc(O)cc2)coc2cc(O[C@@H]3O[C@H](CO)[C@@H](O)[C@H](O)[C@H]3O)ccc12 [Daidzin]', 'cell viability', '%', 96.2),
  ('CCN(CC)C(=S)SSC(=S)N(CC)CC [Disulfiram]', 'cell viability', '%', 101),
  ('O=C(O)CC[N+](=O)[O-] [3-nitropropionic acid]', 'cell viability', '%', 99.6),
  ('CC(C)CC(=O)N[C@H](C(=O)N[C@H](C(=O)N[C@@H](CC(C)C)[C@@H](O)CC(=O)N[C@@H](C)C(=O)N[C@@H](CC(C)C)[C@@H](O)CC(=O)O)C(C)C)C(C)C [Pepstatin A]', 'cell viability', '%', 98.3),
  ('CCn1c(=Cc2cccc[n+]2CC)sc(=C2Sc3ccccc3N2C)c1=O [MKT 077]', 'cell viability', '%', 102),
  ('C=CCN(C)CCCCCCOc1ccc(C(=O)c2ccc(Br)cc2)c(F)c1.O=C(O)/C=C/C(=O)O [Ro 48-8071 fumarate]', 'cell viability', '%', 99.1),
  ('CC[C@H](C)[C@H](N)C(=O)N1CCSC1 [P32/98]', 'cell viability', '%', 99.4),
  ('CN(Cc1cnc2nc(N)nc(N)c2n1)c1ccc(C(=O)N[C@@H](CCC(=O)O)C(=O)O)cc1 [Methotrexate]', 'cell viability', '%', 101),
  ('C=CC(=O)c1ccc(O)cc1 [4-Acryloylphenol]', 'cell viability', '%', 102),
  ('Cc1cc(C(=O)NNCc2ccccc2)no1 [Isocarboxazid]', 'cell viability', '%', 102),
  ('c1cc(-c2cnn3cc(-c4ccc(OCCN5CCCCC5)cc4)cnc23)ccn1 [Dorsomorphin]', 'cell viability', '%', 99.8),
  ('C[C@H]1c2cccc(O)c2C(=O)C2C(=O)[C@]3(O)C(=O)C(C(N)=O)C(=O)[C@@H](N(C)C)[C@@H]3[C@@H](O)[C@@H]21 (stereo not given in full) [Doxycycline]', 'cell viability', '%', 100);

====

# System: ML-2
# METHOD: cell viability (% survival relative to DMSO control, bortezomib = 0%); higher = less cytotoxic
# MEASUREMENT PARAMETERS: 10000 nM; 72 h
Where a name gives a salt, the structure may show the parent alone.
Response field label takes T when cell viability is strictly below 50% and F in all other cases.

INSERT INTO assay_data (molecule, qualitative_label) VALUES
  ('Cc1c2c(=O)n(-c3ccccc3Cl)[nH]c2cc(=O)n1Cc1ccccn1', 'F'),
  ('C[C@H]1c2cccc(O)c2C(=O)C2C(=O)[C@]3(O)C(=O)C(C(N)=O)C(=O)[C@@H](N(C)C)[C@@H]3[C@@H](O)[C@@H]21 (some centres undefined)', 'T'),
  ('CN1CCN(CCCN2c3ccccc3Sc3ccc(C(F)(F)F)cc32)CC1', 'T'),
  ('CN(Cc1cnc2nc(N)nc(N)c2n1)c1ccc(C(=O)N[C@@H](CCC(=O)O)C(=O)O)cc1 [Methotrexate]', 'T'),
  ('O=C(/C=C/c1ccc(O)c(O)c1)OCCc1ccccc1', 'T'),
  ('Cc1cccc(Nc2cc(Cl)nc(SCC(=O)O)n2)c1C', 'F'),
  ('CCN(CCO)CCCC(C)Nc1ccnc2cc(Cl)ccc12 (centres undefined) [Hydroxychloroquine sulfate]', 'F'),
  ('O=c1cc(-c2ccccc2)oc2c1ccc1ccccc12', 'F'),
  ('O=C1C(SCCO)=C(SCCO)C(=O)c2ccccc21', 'T'),
  ('O=c1c(-c2ccc(O)cc2)coc2cc(O[C@@H]3O[C@H](CO)[C@@H](O)[C@H](O)[C@H]3O)ccc12', 'F'),
  ('Cc1ccc(-c2cc(C(F)(F)F)nn2-c2ccc(S(N)(=O)=O)cc2)cc1', 'F'),
  ('Cc1cc2c(C(C)C)c(O)c(O)c(C=O)c2c(O)c1-c1c(C)cc2c(C(C)C)c(O)c(O)c(C=O)c2c1O', 'T'),
  ('O=C(NCCN1CCC(n2c(O)nc3ccccc32)CC1)c1cc2cc(F)ccc2[nH]1', 'F'),
  ('CCCCCN(C)CCC(O)(P(=O)(O)O)P(=O)(O)O [Ibandronate]', 'F');
